tested on: LOX IMVI; assay: NCI tumour cell line growth inhibition, 48 h
Counter-ions that a name gives are not always drawn. Activity calls are given as the source filed them. Rule as the data show it: active = GI50 up to about 1.1 µM and inactive = higher.
REPORTED PROPERTY: GI50

C=C1C(=O)O[C@H]2C/C(C)=C/CC/C(C)=C/CC[C@@](C)(O)[C@@H](I)C[C@@H]12
0.234 µM (active)

Query (compound): Cc1cccc(/C=C2\CCCCCC2=O)c1 ; field requested: GI50 > 100 µM (inactive)

Would you kindly repeat that for CN1CCC(CN2c3ccccc3Sc3ccccc32)C1 (centres undefined) [METHDILAZINE HYDROCHLORIDE] ? 15 µM (inactive)

Would you kindly repeat that for CC(=O)NC1=C(C)C(=O)c2c(nc3n2CCC3O)C1=N (centres undefined) ? 5.85 µM (inactive)

Would you kindly repeat that for Cc1ncc([N+](=O)[O-])n1CCNCCCCn1ccnc1[N+](=O)[O-] ? > 100 µM (inactive)

Would you kindly repeat that for OC(c1ccc(-c2ccccc2)cc1)(c1ccc(-c2ccccc2)cc1)c1ccc(-c2ccccc2)cc1 ? > 100 µM (inactive)

Would you kindly repeat that for CCCCCCCCCCCCCB(O)O ? > 100 µM (inactive)

Would you kindly repeat that for COc1cccc2c1CCc1c(-c3ccc(F)cc3)cc(-c3ccc4ccccc4n3)nc1-2 ? > 100 µM (inactive)

Would you kindly repeat that for O=S(=O)(O)C(F)(F)C(F)(F)C(F)(F)C(F)(F)F ? > 100 µM (inactive)
